Target: T1, ScWpl1^259–647 (Wapl domain of Saccharomyces cerevisiae Wpl1), wild type (S. cerevisiae, UniProt Q99359 259-647)
T1 sequence (looked up): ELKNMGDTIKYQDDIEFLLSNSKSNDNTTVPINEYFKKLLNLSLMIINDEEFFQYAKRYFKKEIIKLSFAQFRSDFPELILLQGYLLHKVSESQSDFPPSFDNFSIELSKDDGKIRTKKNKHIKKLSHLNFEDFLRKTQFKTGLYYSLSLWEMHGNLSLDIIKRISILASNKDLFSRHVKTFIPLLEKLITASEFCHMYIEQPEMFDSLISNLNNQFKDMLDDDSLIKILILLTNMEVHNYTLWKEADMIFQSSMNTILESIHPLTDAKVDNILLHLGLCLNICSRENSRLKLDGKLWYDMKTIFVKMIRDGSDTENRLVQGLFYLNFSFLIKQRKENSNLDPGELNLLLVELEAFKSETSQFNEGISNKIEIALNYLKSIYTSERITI
Test: BLI
parameter measured: koff (s⁻¹)
Please respond with the number in s⁻¹ and leave the unit unwritten.

Please review the entries below; each comes with its answer.
binder	units of measure	koff
GST-tagged ScSmc3^AH L163A L166A D168A (domain or fragment, S. cerevisiae) MYIKRVIIKGFKTYRNETIIDNFSPHQNVIIGSNGSGKSNFFAAIRFVLSDDYSNLKREERQGLIHQGSGGSVMSASVEIVFHDPDHSMILPSGVLSRGDDEVTIRRTVGLKKDDYQLNDRNVTKGDIVRMLETAGFSMNNPYNIVPQGKIVALTNAKDKERAQLAEAVVGAKSFEVKLKASLKKMEETESGGSGGKVSENFEAVFERLVPRGTAKLIIHRKNDNANDHDESIDVDMDAESNESQNGKDSEIMYTGVSISVSFNSKQNEQLHVEQLSGGQKTVCAIALILAIQMVDPASFYLFDEIDAALDKQYRTAVATLLKELSKNAQFICTTFRTDMLQVADKFFRVKYENKISTVIEVNREEAIGFIRGSNKFAEV	s⁻¹	0.000497
GST-tagged ScSmc3^AH K112N K113N (domain or fragment, S. cerevisiae) MYIKRVIIKGFKTYRNETIIDNFSPHQNVIIGSNGSGKSNFFAAIRFVLSDDYSNLKREERQGLIHQGSGGSVMSASVEIVFHDPDHSMILPSGVLSRGDDEVTIRRTVGLNNDDYQLNDRNVTKGDIVRMLETAGFSMNNPYNIVPQGKIVALTNAKDKERLQLLEDVVGAKSFEVKLKASLKKMEETESGGSGGKVSENFEAVFERLVPRGTAKLIIHRKNDNANDHDESIDVDMDAESNESQNGKDSEIMYTGVSISVSFNSKQNEQLHVEQLSGGQKTVCAIALILAIQMVDPASFYLFDEIDAALDKQYRTAVATLLKELSKNAQFICTTFRTDMLQVADKFFRVKYENKISTVIEVNREEAIGFIRGSNKFAEV	s⁻¹	0.000431
GST-tagged ScSmc3^AH L163D L166D (domain or fragment, S. cerevisiae) MYIKRVIIKGFKTYRNETIIDNFSPHQNVIIGSNGSGKSNFFAAIRFVLSDDYSNLKREERQGLIHQGSGGSVMSASVEIVFHDPDHSMILPSGVLSRGDDEVTIRRTVGLKKDDYQLNDRNVTKGDIVRMLETAGFSMNNPYNIVPQGKIVALTNAKDKERDQLDEDVVGAKSFEVKLKASLKKMEETESGGSGGKVSENFEAVFERLVPRGTAKLIIHRKNDNANDHDESIDVDMDAESNESQNGKDSEIMYTGVSISVSFNSKQNEQLHVEQLSGGQKTVCAIALILAIQMVDPASFYLFDEIDAALDKQYRTAVATLLKELSKNAQFICTTFRTDMLQVADKFFRVKYENKISTVIEVNREEAIGFIRGSNKFAEV	s⁻¹	0.000597

koff lookup needed for GST-tagged ScSmc3 ATPase head (ScSmc3^AH), wild type (domain or fragment, S. cerevisiae) MYIKRVIIKGFKTYRNETIIDNFSPHQNVIIGSNGSGKSNFFAAIRFVLSDDYSNLKREERQGLIHQGSGGSVMSASVEIVFHDPDHSMILPSGVLSRGDDEVTIRRTVGLKKDDYQLNDRNVTKGDIVRMLETAGFSMNNPYNIVPQGKIVALTNAKDKERLQLLEDVVGAKSFEVKLKASLKKMEETESGGSGGKVSENFEAVFERLVPRGTAKLIIHRKNDNANDHDESIDVDMDAESNESQNGKDSEIMYTGVSISVSFNSKQNEQLHVEQLSGGQKTVCAIALILAIQMVDPASFYLFDEIDAALDKQYRTAVATLLKELSKNAQFICTTFRTDMLQVADKFFRVKYENKISTVIEVNREEAIGFIRGSNKFAEV , thanks. 0.000248
